- ASSAYED SYSTEM: TAK1-TAB1 fusion protein (Homo sapiens)
- Sequence (O43318 whole entry, looked up, the tested form may be a part): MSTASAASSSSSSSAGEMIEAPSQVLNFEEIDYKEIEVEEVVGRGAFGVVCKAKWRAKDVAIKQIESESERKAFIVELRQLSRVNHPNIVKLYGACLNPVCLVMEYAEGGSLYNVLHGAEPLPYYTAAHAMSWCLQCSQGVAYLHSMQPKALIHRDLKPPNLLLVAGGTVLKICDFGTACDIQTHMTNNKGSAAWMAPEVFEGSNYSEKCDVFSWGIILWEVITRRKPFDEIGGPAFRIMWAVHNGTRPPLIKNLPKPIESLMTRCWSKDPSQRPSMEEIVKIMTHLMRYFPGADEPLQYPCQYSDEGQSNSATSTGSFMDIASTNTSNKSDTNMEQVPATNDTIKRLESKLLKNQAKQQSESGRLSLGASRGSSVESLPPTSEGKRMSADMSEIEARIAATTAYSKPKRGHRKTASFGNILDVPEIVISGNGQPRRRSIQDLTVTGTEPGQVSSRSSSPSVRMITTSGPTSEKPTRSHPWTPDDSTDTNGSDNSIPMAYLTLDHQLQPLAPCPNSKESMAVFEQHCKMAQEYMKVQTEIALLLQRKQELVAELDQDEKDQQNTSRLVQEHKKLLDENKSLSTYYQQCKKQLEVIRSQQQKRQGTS
- ASSAY PROCEDURE: Inhibition of Tak1/Tab1 (unknown origin) assessed as inhibition of Tak1 kinase activity preincubated for 30 mins followed by addition of MBP protein and ATP and measured after 2 hrs by ADP-Glo kinase assay
pIC50: −log10 of the molar value.
Reported pIC50 values follow for various molecules
VALUE KIND: pIC50

[[record]]
smiles_repr = "c1cc(N2CCCCC2)nc(Nc2ccc(Oc3ncnc4sccc34)cc2)n1"
value_kind = "pIC50"
measured_value = 5.60

[[record]]
smiles_repr = "CNC(=O)c1cc(Oc2ccc(Nc3nccc(N4CCCCC4)n3)cc2)ccn1"
value_kind = "pIC50"
measured_value = 6.24

[[record]]
smiles_repr = "c1ccc2c(c1)CCN(c1ccnc(Nc3ccc(Oc4ncnc5sccc45)cc3)n1)C2"
value_kind = "pIC50"
measured_value = 5.16

[[record]]
smiles_repr = "CNC(=O)c1cc(Oc2ccc(Nc3nccc(N4CCc5ccccc5C4)n3)cc2)ccn1"
value_kind = "pIC50"
measured_value = 5.90

[[record]]
smiles_repr = "c1cc(N2CCOCC2)nc(Nc2ccc(Oc3ncnc4ccsc34)cc2)n1"
value_kind = "pIC50"
measured_value = 4.80

[[record]]
smiles_repr = "CN(c1ccc(Oc2ncnc3sccc23)cc1)c1nccc(N2CCc3ccccc3C2)n1"
value_kind = "pIC50"
measured_value = 4.92

[[record]]
smiles_repr = "CNC(=O)c1cc(Oc2ccc(Nc3nccc(N4CCCC4)n3)cc2)ccn1"
value_kind = "pIC50"
measured_value = 5.87


###

Listing: inhibition at 20 µM of selected molecules
- Tested on: A549
- ASSAY PROCEDURE: Cytotoxicity against human A549 cells assessed as inhibition of cell growth at 20 uM measured after 72 hrs by MTT assay relative to control
- Format: functional
VALUE KIND: inhibition at 20 µM

[[record]]
smiles_repr = "c1cc(N2CCCC2)nc(Nc2ccc(Oc3ncnc4ccsc34)cc2)n1"
assayed_system = "A549"
measured_value = "23.2%"

[[record]]
smiles_repr = "CNC(=O)c1cc(Oc2ccc(Nc3nccc(N4CCCCC4)n3)cc2)ccn1"
assayed_system = "A549"
measured_value = "63.4%"

[[record]]
smiles_repr = "CN(C)c1ccc(C(=O)Nc2ccc(Oc3ncnc4ccsc34)cc2)cc1"
assayed_system = "A549"
measured_value = "50.8%"

[[record]]
smiles_repr = "CN(c1ccc(Oc2ncnc3sccc23)cc1)c1nccc(N2CCc3ccccc3C2)n1"
assayed_system = "A549"
measured_value = "68.4%"

[[record]]
smiles_repr = "CN(c1ccc(Oc2ncnc3ccsc23)cc1)c1nccc(N2CCc3ccccc32)n1"
assayed_system = "A549"
measured_value = "58.2%"


###

- Test system: HCT-116
- ASSAY PROCEDURE: Cytotoxicity against human HCT-116 cells assessed as inhibition of cell growth measured after 72 hrs by MTT assay
- Type: functional, cell-based
- CONDITION CONTEXT: HCT-116, 72 h
Here, each record is paired with measured IC50 data.
VALUE KIND: IC50 (µM)

[[record]]
smiles_repr = "CNC(=O)c1cc(Oc2ccc(Nc3nccc(N4CCc5ccccc5C4)n3)cc2)ccn1"
measured_value = 15.8

[[record]]
smiles_repr = "CNC(=O)c1cc(Oc2ccc(Nc3nccc(N4CCOCC4)n3)cc2)ccn1"
measured_value = 12.8

[[record]]
smiles_repr = "CNC(=O)c1cc(Oc2ccc(Nc3nccc(N4CCCC4)n3)cc2)ccn1"
measured_value = 1.41

[[record]]
smiles_repr = "CNC(=O)c1cc(Oc2ccc(Nc3nccc(N4CCCCC4)n3)cc2)ccn1"
measured_value = 0.54

